target: MMP-2 (Homo sapiens, UniProt P08253); construct: All the enzymes are recombinant human active domains from E. coli (Biomol); experiment: MMP inhibitory assay, fluorescent substrate, MMP-2; conditions: recombinant human active domain, substrate 4 uM, room temperature
Sequence (P08253 110-446 limits assumed): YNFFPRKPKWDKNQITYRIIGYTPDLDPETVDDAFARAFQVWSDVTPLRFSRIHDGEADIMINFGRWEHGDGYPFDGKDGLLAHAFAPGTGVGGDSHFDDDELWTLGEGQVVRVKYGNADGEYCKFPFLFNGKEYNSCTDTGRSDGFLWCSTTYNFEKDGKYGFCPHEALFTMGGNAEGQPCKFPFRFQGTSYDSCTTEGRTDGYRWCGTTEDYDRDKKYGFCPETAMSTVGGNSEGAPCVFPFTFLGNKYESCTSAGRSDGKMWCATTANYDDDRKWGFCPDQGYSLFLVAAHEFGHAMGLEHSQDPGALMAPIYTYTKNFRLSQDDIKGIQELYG
QUANTITY: IC50 (µM)

Worked examples, 3 compounds total:
Looking for the measured IC50 of Cc1cccc(COc2ccc(Sc3ccoc3C3NC(=O)NC3=O)cc2)c1 (stereo not shown) , can you help?
1.11

# IC50 lookup, item O=C1NC(=O)C(c2occc2Sc2ccc(OCc3cccc(C(F)(F)F)c3)cc2)N1 (stereo not shown)
2.13

# IC50 lookup, item Cc1ccc(COc2ccc(Sc3ccoc3C3NC(=O)NC3=O)cc2)cc1 (stereo not shown)
0.612

P = COc1cccc(COc2ccc(Sc3ccoc3C3NC(=O)NC3=O)cc2)c1 (stereo not shown)
Q = COc1ccccc1COc1ccc(Sc2ccoc2C2NC(=O)NC2=O)cc1 (stereo not shown)
R = O=C1NC(=O)C(c2occc2Sc2ccc(OCc3ccc(OCc4ccccc4)cc3)cc2)N1 (stereo not shown)
Rank entries according to their IC50, from the largest number down. Write the labels, ordered according to the request.
Q, P, R

1 = O=C1NC(=O)C(c2occc2Sc2ccc(OCc3ccc(-c4ccccc4)cc3)cc2)N1 (stereo not shown)
2 = O=C1NC(=O)C(c2occc2Sc2ccc(OCc3ccccc3)cc2)N1 (stereo not shown)
# return whichever of 1 and 2 has the smaller IC50 Mark your selection by writing its label.
2
(2: 0.447 µM, 1: 1.74 µM)

----------
Target: MMP-13 (Homo sapiens, UniProt P45452)
Construct: All the enzymes are recombinant human active domains from E. coli (Biomol)
Assay: MMP inhibitory assay, fluorescent substrate, MMP-13
Conditions: recombinant human active domain, substrate 4 uM, room temperature
Protocol: The enzymatic activities of MMPs were assayed according to manufacture protocols (Biomol Reseaerch Laboratory, Inc. E-mail: info@biomol.com). All the enzymes are recombinant human active domains from E. coli (Biomol). […] The activity was determined by measuring the fluorescence at Ex/Em=328 nm/393 nm and it was linear within 2 hrs. The fluorescence was read at 0 and 20 or 40 min. The reading at 0 time would be considered as the background and subtracted from the final reading. […]
pIC50: −log10 of the molar value.
QUANTITY: pIC50

Before answering, review these 3 worked examples.
# value lookup — system MMP-13 (Homo sapiens, UniProt P45452), readout pIC50, item Cc1ccc(COc2ccc(Sc3ccoc3C3NC(=O)NC3=O)cc2)cc1 (centres unmarked)
6.19

Given the entry Cc1cccc(COc2ccc(Sc3ccoc3C3NC(=O)NC3=O)cc2)c1 (centres unmarked) , what pIC50 was observed with MMP-13 (Homo sapiens, UniProt P45452)?
5.71

Hello, I am looking for reported pIC50 with MMP-13 (Homo sapiens, UniProt P45452) for O=C1NC(=O)C(c2occc2Sc2ccc(OCc3cccc(Cl)c3)cc2)N1 (centres unmarked) . Could you help?
6.11

a = O=C1NC(=O)C(c2occc2Sc2ccc(OCc3cccc(C(F)(F)F)c3)cc2)N1 (centres unmarked)
b = O=C1NC(=O)C(c2occc2Sc2ccc(OCc3ccc(Cl)cc3)cc2)N1 (centres unmarked)
c = COc1ccccc1COc1ccc(Sc2ccoc2C2NC(=O)NC2=O)cc1 (centres unmarked)
Sort ascending by pIC50. Quick reminder: the answer is the labels in the order asked.
c, a, b
(c: 4.93, a: 5.69, b: 6.48)

I = Cc1ccccc1COc1ccc(Sc2ccoc2C2NC(=O)NC2=O)cc1 (centres unmarked)
II = COc1cc(COc2ccc(Sc3ccoc3C3NC(=O)NC3=O)cc2)cc(OC)c1 (centres unmarked)
In terms of reported pIC50, does I or II have the smaller number? Identify your selection by its label.
II

1 = O=C1NC(=O)C(c2occc2Sc2ccc(OCc3ccccc3Cl)cc2)N1 (centres unmarked)
2 = O=C1NC(=O)C(c2occc2Sc2ccc(OCc3ccc(OCc4ccccc4)cc3)cc2)N1 (centres unmarked)
3 = O=C1NC(=O)C(c2occc2Sc2ccc(OCc3ccc(-c4ccccc4)cc3)cc2)N1 (centres unmarked)
Exam item: list the entries in increasing order of pIC50. Provide the ranking by listing each label in its place in the requested order.
1, 3, 2

1 = COc1ccc(COc2ccc(Sc3ccoc3C3NC(=O)NC3=O)cc2)cc1 (centres unmarked)
2 = COc1cccc(COc2ccc(Sc3ccoc3C3NC(=O)NC3=O)cc2)c1 (centres unmarked)
Between 1 and 2 , whose recorded pIC50 is greater? // respond with label for picked entry
1
(1: 6.59, 2: 5.61)

----------
biological target: MMP-9 (Homo sapiens, UniProt P14780); construct: All the enzymes are recombinant human active domains from E. coli (Biomol); test: MMP inhibitory assay, fluorescent substrate, MMP-9; conditions: recombinant human active domain, substrate 4 uM, room temperature
Sequence (P14780 107-444 limits assumed): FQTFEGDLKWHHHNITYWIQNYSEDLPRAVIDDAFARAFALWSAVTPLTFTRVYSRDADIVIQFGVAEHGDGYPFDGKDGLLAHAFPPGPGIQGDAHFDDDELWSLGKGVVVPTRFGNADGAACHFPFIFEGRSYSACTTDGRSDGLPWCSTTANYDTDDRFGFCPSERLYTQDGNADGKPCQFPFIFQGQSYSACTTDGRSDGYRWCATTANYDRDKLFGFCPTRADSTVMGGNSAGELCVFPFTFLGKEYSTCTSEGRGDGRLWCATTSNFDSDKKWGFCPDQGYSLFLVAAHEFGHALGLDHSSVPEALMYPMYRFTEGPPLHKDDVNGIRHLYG
pIC50: −log10 of the molar value.
QUANTITY: pIC50

Past entries and their recorded results:
Entry COc1cccc(COc2ccc(Sc3ccoc3C3NC(=O)NC3=O)cc2)c1 (stereo not shown) has what pIC50?
5.43

Param item = COc1ccc(COc2ccc(Sc3ccoc3C3NC(=O)NC3=O)cc2)cc1 (stereo not shown) ; retrieve measured pIC50.
6.13

pIC50 lookup needed for O=C1NC(=O)C(c2occc2Sc2ccc(OCc3ccc(OCc4ccccc4)cc3)cc2)N1 (stereo not shown) , thanks.
5.35

P = COc1ccccc1COc1ccc(Sc2ccoc2C2NC(=O)NC2=O)cc1 (stereo not shown)
Q = O=C1NC(=O)C(c2occc2Sc2ccc(OCc3ccccc3Cl)cc2)N1 (stereo not shown)
R = Cc1ccccc1COc1ccc(Sc2ccoc2C2NC(=O)NC2=O)cc1 (stereo not shown)
S = Cc1ccc(COc2ccc(Sc3ccoc3C3NC(=O)NC3=O)cc2)cc1 (stereo not shown)
Exam item: list the entries in increasing order of pIC50. Return value: ordered labels per request.
P, R, Q, S

I = O=C1NC(=O)C(c2occc2Sc2ccc(OCc3cccc(Cl)c3)cc2)N1 (stereo not shown)
II = O=C1NC(=O)C(c2occc2Sc2ccc(OCc3ccccc3)cc2)N1 (stereo not shown)
Between item I and item II , which reported pIC50 is smaller? The response must carry the label of the picked entry.
I

I = O=C1NC(=O)C(c2occc2Sc2ccc(OCc3cccc(C(F)(F)F)c3)cc2)N1 (stereo not shown)
II = O=C1NC(=O)C(c2occc2Sc2ccc(OCc3ccc(Cl)cc3)cc2)N1 (stereo not shown)
Compare reported pIC50 values for I and II . Which is lower? Your answer should be the label attached to the chosen record.
I
(I: 5.54, II: 6.59)

I = COc1cc(COc2ccc(Sc3ccoc3C3NC(=O)NC3=O)cc2)cc(OC)c1 (stereo not shown)
II = Cc1cccc(COc2ccc(Sc3ccoc3C3NC(=O)NC3=O)cc2)c1 (stereo not shown)
Could you please tell me which of these two has the higher pIC50: I or II ? Give the chosen item's label as your response.
II

----------
molecular target: MMP-7 (Homo sapiens, UniProt P09237); construct: All the enzymes are recombinant human active domains from E. coli (Biomol); test: MMP inhibitory assay, fluorescent substrate, MMP-7; details: recombinant human active domain, substrate 4 uM, room temperature
Sequence (P09237 95-267): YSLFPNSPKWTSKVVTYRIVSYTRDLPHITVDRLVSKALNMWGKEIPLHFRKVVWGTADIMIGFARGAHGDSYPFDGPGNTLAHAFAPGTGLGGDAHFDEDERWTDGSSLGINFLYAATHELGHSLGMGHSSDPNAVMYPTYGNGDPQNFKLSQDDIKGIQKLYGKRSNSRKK
QUANTITY: IC50 (µM)

Some solved cases for reference:
What measured IC50 goes with O=C1NC(=O)C(c2occc2Sc2ccc(OCc3ccc(Cl)cc3)cc2)N1 (stereo not drawn) ?
7.45

Give the measured IC50 of O=C1NC(=O)C(c2occc2Sc2ccc(OCc3ccc(OCc4ccccc4)cc3)cc2)N1 (stereo not drawn) .
1.88

IC50 lookup needed for Cc1ccc(COc2ccc(Sc3ccoc3C3NC(=O)NC3=O)cc2)cc1 (stereo not drawn) , thanks.
30.9

IC50 for COc1cccc(COc2ccc(Sc3ccoc3C3NC(=O)NC3=O)cc2)c1 (stereo not drawn) ?
27.4

I'd like to know its IC50. The molecule in question is O=C1NC(=O)C(c2occc2Sc2ccc(OCc3cccc(Cl)c3)cc2)N1 (stereo not drawn)
676

P = Cc1cccc(COc2ccc(Sc3ccoc3C3NC(=O)NC3=O)cc2)c1 (stereo not drawn)
Q = COc1ccc(COc2ccc(Sc3ccoc3C3NC(=O)NC3=O)cc2)cc1 (stereo not drawn)
Parameter check: reported IC50 is higher for which label, P or Q ? Response format: the label of the selected entry.
P
(P: 46.7 µM, Q: 7.6 µM)

1 = O=C1NC(=O)C(c2occc2Sc2ccc(OCc3ccccc3)cc2)N1 (stereo not drawn)
2 = O=C1NC(=O)C(c2occc2Sc2ccc(OCc3ccc(-c4ccccc4)cc3)cc2)N1 (stereo not drawn)
Which value of IC50 is numerically greater: that of 1 or that of 2 ? Pick one; state its label.
1
(1: 63.7 µM, 2: 1.04 µM)

----------
Target: MMP-12 (Homo sapiens)
Construct: All the enzymes are recombinant human active domains from E. coli (Biomol)
Sequence (P39900 106-263 limits assumed): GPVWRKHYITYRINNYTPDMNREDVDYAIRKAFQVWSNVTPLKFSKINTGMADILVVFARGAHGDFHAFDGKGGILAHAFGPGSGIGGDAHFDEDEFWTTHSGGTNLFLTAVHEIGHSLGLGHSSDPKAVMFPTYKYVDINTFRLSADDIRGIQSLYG
Experiment: MMP inhibitory assay, fluorescent substrate, MMP-12
Conditions: recombinant human active domain, substrate 4 uM, room temperature
Method: The enzymatic activities of MMPs were assayed according to manufacture protocols (Biomol Reseaerch Laboratory, Inc. E-mail: info@biomol.com). All the enzymes are recombinant human active domains from E. coli (Biomol). […] The activity was determined by measuring the fluorescence at Ex/Em=328 nm/393 nm and it was linear within 2 hrs. The fluorescence was read at 0 and 20 or 40 min. The reading at 0 time would be considered as the background and subtracted from the final reading. […]
QUANTITY: IC50 (nM)

Recorded IC50, per entry:
Please look up its IC50: O=C1NC(=O)C(c2occc2Sc2ccc(OCc3cccc(Cl)c3)cc2)N1 (centres unmarked)
22

Look up IC50: O=C1NC(=O)C(c2occc2Sc2ccc(OCc3ccc(Cl)cc3)cc2)N1 (centres unmarked)
7

I have this compound here, COc1cccc(COc2ccc(Sc3ccoc3C3NC(=O)NC3=O)cc2)c1 (centres unmarked) , and I need its recorded IC50.
19

P = O=C1NC(=O)C(c2occc2Sc2ccc(OCc3ccccc3)cc2)N1 (centres unmarked)
Q = O=C1NC(=O)C(c2occc2Sc2ccc(OCc3ccc(-c4ccccc4)cc3)cc2)N1 (centres unmarked)
Looking only at measured IC50, which entry is lower, P or Q ? Answer with the label corresponding to your selection.
P
